# Test system: Staphylococcus aureus
# TEST METHOD NOTES: Antimicrobial activity against methicillin-resistant Staphylococcus aureus 12 after 24 hrs
# Format: functional
Kindly state MIC for each of the entries shown.
One number for each entry, in µg/mL.

MOLECULE | STUDY TARGET | READOUT NAME | VAL
Cc1onc(-c2ccccc2)c1C(=O)N[C@@H]1C(=O)N2[C@@H]1SC(C)(C)[C@@H]2C(=O)O [OXACILLIN] | Staphylococcus aureus | MIC | 512

Next, consider the following molecule.
The measured MIC associated with O=C(OC[C@H]1O[C@@H](Oc2cc(O)cc(/C=C/c3ccc(O)cc3)c2)[C@H](O)[C@@H](O)[C@@H]1O)c1cc(O)c(O)c(O)c1 reads 250

---

# Tested on: Staphylococcus aureus
# TEST METHOD NOTES: Antimicrobial activity against methicillin-resistant Staphylococcus aureus 1 after 24 hrs
# Format: functional
READOUT NAME: MIC (µg/mL)
Numbers only, in µg/mL.

STRUCTURE NOTATION | STUDY TARGET | VAL
Cc1onc(-c2ccccc2)c1C(=O)N[C@@H]1C(=O)N2[C@@H]1SC(C)(C)[C@@H]2C(=O)O | Staphylococcus aureus | 512

Next, consider the following compound.
The measured MIC associated with O=C(OC[C@H]1O[C@@H](Oc2cc(O)cc(/C=C/c3ccc(O)cc3)c2)[C@H](O)[C@@H](O)[C@@H]1O)c1cc(O)c(O)c(O)c1 reads 125

---

# TEST METHOD NOTES: DPPH radical scavenging activity assessed as ratio of absorbance at 20 uM relative to L-cysteine
# Assay type: functional
Sorting guide: entries reporting Ratio beneath 0.5 go in the met pile, the rest go in the not met pile.

Illustrative cases are given below, each with its answer.
COMPOUND | ASSIGNED CATEGORY
O=C(OC[C@H]1O[C@@H](Oc2cc(O)cc(/C=C/c3ccc(O)cc3)c2)[C@H](O)[C@@H](O)[C@@H]1O)c1cc(O)c(O)c(O)c1 | not met
Oc1ccc(/C=C/c2cc(O)cc(O)c2)cc1 [RESVERATROL] | not met
OC[C@H]1O[C@@H](Oc2cc(O)cc(/C=C/c3ccccc3)c2)[C@H](O)[C@@H](O)[C@@H]1O | met
Oc1ccc(/C=C/c2cc(O)cc(O[C@@H]3OC[C@@H](O)[C@H](O)[C@H]3O)c2)cc1 | met
Oc1cc(O)cc(/C=C/c2ccccc2)c1 [PINOSYLVIN] | not met

Exercise: Say whether its Ratio is strictly beneath 0.5. Entry: OC[C@H]1O[C@@H](Oc2cc(O)cc(/C=C/c3ccc(O)cc3)c2)[C@H](O)[C@@H](O)[C@@H]1O
Key: not met

Exercise: Say whether its Ratio is strictly beneath 0.5. Entry: CC(=O)O[C@@H]1CO[C@@H](Oc2cc(O)cc(/C=C/c3ccc(O)cc3)c2)[C@H](O)[C@H]1O
Key: met
